Taken from patent US20110250203A1.

Target: T1, Recombinant human CD5 extracellular domain (CD5-ECD) (human, UniProt P06127 25-372)
T1 construct: In-house protein made as CD5-ECD - TEV site - hGH fusion; CD5-ECD isolated by TEV cleavage and nickel column; also called CD5-ECD protein
T1 sequence: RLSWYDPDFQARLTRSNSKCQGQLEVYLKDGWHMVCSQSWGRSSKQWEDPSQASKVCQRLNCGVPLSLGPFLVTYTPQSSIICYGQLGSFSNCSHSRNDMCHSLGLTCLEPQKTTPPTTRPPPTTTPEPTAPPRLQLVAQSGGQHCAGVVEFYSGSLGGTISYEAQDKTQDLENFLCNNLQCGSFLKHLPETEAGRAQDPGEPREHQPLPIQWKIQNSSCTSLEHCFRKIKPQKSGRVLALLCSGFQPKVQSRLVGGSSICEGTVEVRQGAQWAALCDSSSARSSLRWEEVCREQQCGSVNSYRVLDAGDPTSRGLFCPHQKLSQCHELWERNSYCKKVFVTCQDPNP
Assay: SPR (Biacore 2000), antibody captured by anti-human Fc, CD5-ECD in solution, 1:1 fit;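 note: CM5 chip, binding curves at four CD5-ECD concentrations fitted globally, with the signal of a non-CD5-binding control antibody subtracted as reference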

{"binder": "Anti-CD5 antibody 29 (8E15) (antibody, human IgG1, V domains shown, also called Ab29; Clone 29) VH: QVQLKESGADLVKPGASVKLSCTASGFNIKDTYMNWVKERPEQGLEWIGRIDPANGNTKYDPKFQGKATITADTSSNTGYLQLSSLTSEDTAVYYCASYDPDY VL: DIVLTQSPASLAASVGETVTITCRASENIYYNLAWYQQKQGKSPQLLIYNANSLEGGVPSRFSGSGSGTQYSMKINSMQPEDTATYFCKQAYDVPWT", "Kd [nM]": 2.09}
